Molecular target: BChE (equine serum) (Equus caballus)
Construct: BChE (equine serum); purchased Sigma-Aldrich; host or cells: equine serum
Sequence (P81908 whole entry): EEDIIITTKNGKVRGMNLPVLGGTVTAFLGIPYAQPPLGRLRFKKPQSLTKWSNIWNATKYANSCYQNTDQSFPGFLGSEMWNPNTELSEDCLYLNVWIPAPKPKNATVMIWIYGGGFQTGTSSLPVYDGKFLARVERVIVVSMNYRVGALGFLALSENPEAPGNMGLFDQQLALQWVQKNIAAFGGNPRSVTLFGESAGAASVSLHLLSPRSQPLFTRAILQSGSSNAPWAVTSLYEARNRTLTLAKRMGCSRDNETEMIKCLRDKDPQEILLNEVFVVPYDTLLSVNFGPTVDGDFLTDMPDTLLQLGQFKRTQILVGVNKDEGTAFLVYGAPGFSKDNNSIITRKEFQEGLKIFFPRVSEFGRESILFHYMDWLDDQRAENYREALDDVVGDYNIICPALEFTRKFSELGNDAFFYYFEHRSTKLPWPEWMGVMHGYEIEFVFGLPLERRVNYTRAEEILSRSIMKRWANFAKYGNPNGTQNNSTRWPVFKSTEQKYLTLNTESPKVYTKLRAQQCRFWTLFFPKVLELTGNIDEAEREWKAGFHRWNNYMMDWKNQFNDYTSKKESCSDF
Test: biochemical
Settings: read-out: Residual activity at 10 µM (%) BChE
Listing of recorded remaining activity at 10 µM by entry.

- smi: "O=c1oc2c(O)c(O)cc3c(=O)oc4c(O)c(O)cc1c4c23"
  measurement_units: "%"
  remaining activity at 10 µM: 96.9
- smi: "O=C(OCc1cc(O)c(O[C@@H]2O[C@H](CO)[C@@H](O)[C@H](O)[C@H]2O)c(O)c1)c1cc(O)c(O)c(Oc2c(C(=O)OCc3cc(O)c(O[C@@H]4O[C@H](CO)[C@@H](O)[C@H](O)[C@H]4O)c(O)c3)cc(O)c(O)c2O)c1"
  measurement_units: "%"
  remaining activity at 10 µM: 96.2
- smi: "COc1cc2c(=O)oc3c(OC)c(O[C@@H]4O[C@@H](C)[C@H](O)[C@@H](O)[C@H]4O)cc4c(=O)oc(c1OC)c2c34"
  measurement_units: "%"
  remaining activity at 10 µM: 83.3
- smi: "COc1cc2c(=O)oc3c(OC)c(O[C@@H]4O[C@H](CO)[C@@H](O)[C@H](O)[C@H]4O)cc4c(=O)oc(c1OC)c2c34"
  measurement_units: "%"
  remaining activity at 10 µM: 90.8
- smi: "COc1cc2c(=O)oc3c(OC)c(O)cc4c(=O)oc(c1OC)c2c34"
  measurement_units: "%"
  remaining activity at 10 µM: 92.3

* * *

Experiment: Cytotoxicity test, CCK-8 assay
Conditions: human, HL-60 cells
attribute_measured: viability at 24 h, 50 µM (%)

- compound: "COc1cc2c(=O)oc3c(OC)c(O)cc4c(=O)oc(c1OC)c2c34 [Compound 4, 3,3′,4-tri-O-methylellagic acid]"
  attribute_measured: "viability at 24 h, 50 µM"
  measurement_units: "%"
  test_value: 84.6

* * *

Target: MAO-B (Homo sapiens, UniProt P27338)
Construct: purchased Sigma-Aldrich
Sequence (P27338 whole entry): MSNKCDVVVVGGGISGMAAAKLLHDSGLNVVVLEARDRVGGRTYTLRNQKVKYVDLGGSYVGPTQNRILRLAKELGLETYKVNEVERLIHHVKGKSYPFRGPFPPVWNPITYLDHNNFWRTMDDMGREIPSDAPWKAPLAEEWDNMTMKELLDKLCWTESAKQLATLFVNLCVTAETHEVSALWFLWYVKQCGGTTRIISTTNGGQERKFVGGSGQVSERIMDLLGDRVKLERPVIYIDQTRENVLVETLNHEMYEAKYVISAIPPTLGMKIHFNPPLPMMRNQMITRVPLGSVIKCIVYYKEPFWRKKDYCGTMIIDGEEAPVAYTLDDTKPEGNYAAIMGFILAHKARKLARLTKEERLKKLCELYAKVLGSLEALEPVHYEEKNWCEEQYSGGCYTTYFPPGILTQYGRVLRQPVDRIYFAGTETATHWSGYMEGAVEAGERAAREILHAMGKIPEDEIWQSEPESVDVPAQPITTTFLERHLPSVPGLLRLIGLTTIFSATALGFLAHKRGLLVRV
Experiment: biochemical
Conditions: read-out: Residual activity at 10 µM (%) MAO-B
Experimental: AChE and BChE inhibitory activities were measured after preincubating enzymes with inhibitors for 15 min before adding substrates (ATCI and BTCI, respectively) and DTNB. […] MAO-A and MAO-B activities were determined using a continuous spectrophotometric method, as described previously[23],[24]. […] Reaction rates are expressed as changes in absorbance per min. Inhibitory patterns and Ki values were determined using Lineweaver–Burk (LB) plots and secondary plots of LB slopes.

- smi: "COc1cc2c(=O)oc3c(OC)c(O[C@@H]4O[C@@H](C)[C@H](O)[C@@H](O)[C@H]4O)cc4c(=O)oc(c1OC)c2c34"
  remaining activity at 10 µM / %: 43.2
- smi: "O=C(OCc1cc(O)c(O[C@@H]2O[C@H](CO)[C@@H](O)[C@H](O)[C@H]2O)c(O)c1)c1cc(O)c(O)c(Oc2c(C(=O)OCc3cc(O)c(O[C@@H]4O[C@H](CO)[C@@H](O)[C@H](O)[C@H]4O)c(O)c3)cc(O)c(O)c2O)c1"
  remaining activity at 10 µM / %: 67.2
- smi: "O=c1oc2c(O)c(O)cc3c(=O)oc4c(O)c(O)cc1c4c23"
  remaining activity at 10 µM / %: 45.4
- smi: "COc1cc2c(=O)oc3c(OC)c(O[C@@H]4O[C@H](CO)[C@@H](O)[C@H](O)[C@H]4O)cc4c(=O)oc(c1OC)c2c34"
  remaining activity at 10 µM / %: 60.9
- smi: "COc1cc2c(=O)oc3c(OC)c(O)cc4c(=O)oc(c1OC)c2c34"
  remaining activity at 10 µM / %: 89.1
